target: Nuclear receptor subfamily 1 group I member 2 (Homo sapiens) (UniProt O75469); experiment: Human pregnane X receptor (PXR) small molecule agonists, qHTS assay (AID 1346982); details: PXR-Luc HepG2, CYP3A4 luciferase reporter, 24 h; series mostly up to 92.4 µM; note: nearly all actives have a fitted effect of over 35% in size
Sequence (O75469 whole entry, looked up): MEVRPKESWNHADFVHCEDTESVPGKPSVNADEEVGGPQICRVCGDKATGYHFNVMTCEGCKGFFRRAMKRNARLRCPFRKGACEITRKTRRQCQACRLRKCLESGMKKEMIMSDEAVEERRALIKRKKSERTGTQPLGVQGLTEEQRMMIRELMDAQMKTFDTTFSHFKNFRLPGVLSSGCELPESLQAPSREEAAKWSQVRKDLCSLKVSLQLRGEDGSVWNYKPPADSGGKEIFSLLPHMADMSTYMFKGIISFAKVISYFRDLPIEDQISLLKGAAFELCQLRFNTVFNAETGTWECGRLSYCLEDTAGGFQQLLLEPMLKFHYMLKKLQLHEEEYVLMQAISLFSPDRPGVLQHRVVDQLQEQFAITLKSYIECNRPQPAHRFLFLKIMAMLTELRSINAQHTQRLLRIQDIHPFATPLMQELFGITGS
Results filed as inconclusive are left out. Active and inactive are the calls of the source. Calls come from the whole dose curve; as a rule, active = well fitted activation curve with a large enough effect in the repeat runs; inconclusive = weak or mixed curves; inactive = no such curve, though single readings can be large or run the other way.
Thanks in advance; please answer with one of these: active, inactive

[[record]]
molecule = "C[N+](C)=CCl"
label_class = "inactive"

[[record]]
molecule = "CCN(CC)c1nc(C)cc(OP(=S)(OC)OC)n1"
label_class = "inactive"

[[record]]
molecule = "BrCCCCCCBr"
label_class = "inactive"


INPUT: Hello, I am checking results. What call was entered for NC(=S)C(N)=S ?
OUTPUT: inactive

INPUT: Hello, I am checking results. What call was entered for [As]#[In] ?
OUTPUT: inactive

INPUT: Hello, I am checking results. What call was entered for CCNc1nc(NC(C)C)nc(OC)n1 ?
OUTPUT: active

INPUT: Hello, I am checking results. What call was entered for OC(Cn1cncn1)(c1ccc(F)cc1)c1ccccc1F (stereo not given) ?
OUTPUT: inactive

INPUT: Hello, I am checking results. What call was entered for OC(c1ccc(F)cc1)(c1cncnc1)c1ccccc1Cl (stereo not given) ?
OUTPUT: active

INPUT: Hello, I am checking results. What call was entered for Cc1ncc2n1-c1ccc(Cl)cc1C(c1ccccc1F)=NC2 ?
OUTPUT: active

INPUT: Hello, I am checking results. What call was entered for O=C1OC(c2ccc(O)c(S(=O)(=O)O)c2)(c2ccc(O)c(S(=O)(=O)O)c2)c2c(Br)c(Br)c(Br)c(Br)c21 ?
OUTPUT: inactive
